- System: NCI-H522
- assay: cells
- measurement.parameters: Homo sapiens, NCI-H522, 48 h, read-out: LC50
Decision: CC50 beneath 9 µM gives MET; CC50 meeting or exceeding 9 µM gives NOT MET.

| molecule | class.name |
| --- | --- |
| Cc1ccc(/C=C/C(=O)c2ccc(S(=O)(=O)NCCNc3nc(Nc4ccc(F)cc4)nc(N(C)C)n3)cc2)cc1 [24b] | NOT MET |
| CN(C)c1nc(NCCNS(=O)(=O)c2ccc(C(=O)/C=C/c3ccc(C(F)(F)F)cc3)cc2)nc(Nc2ccc(F)cc2)n1 [24g] | NOT MET |
| CN(C)c1nc(NCCNS(=O)(=O)c2ccc(C(=O)/C=C/c3ccc(Cl)cc3)cc2)nc(N2CCOCC2)n1 [23e] | NOT MET |
| COc1cc(/C=C/C(=O)c2cc(OC)c(OC)c(OC)c2)ccc1Oc1nc(NCCO)nc(N2CCOCC2)n1 [20d] | MET |
| Cc1ccc(C2CC(c3ccc(Nc4nc(NCCO)nc(Nc5ccc(Cl)cc5)n4)cc3)=Nc3c(N)nc(N)nc3N2)cc1 (stereo not drawn) [33b] | MET |
| COc1cc(/C=C/C(=O)c2ccccc2)ccc1Oc1nc(Nc2ccc(F)cc2)nc(N(C)C)n1 [21a] | NOT MET |
| CN(C)c1nc(NCCNS(=O)(=O)c2ccc(C3=Nc4c(N)nc(N)nc4NC(c4ccc(C(F)(F)F)cc4)C3)cc2)nc(Nc2ccc(F)cc2)n1 (stereo not drawn) [31g] | NOT MET |
| COc1cc(/C=C/C(=O)c2cc(OC)c(OC)c(OC)c2)ccc1Oc1nc(Nc2ccc(F)cc2)nc(N(C)C)n1 [21d] | MET |
| COc1ccc(/C=C/C(=O)c2ccc(S(=O)(=O)NCCNc3nc(Nc4ccc(F)cc4)nc(N(C)C)n3)cc2)cc1 [24c] | NOT MET |
| Nc1nc(N)c2c(n1)NC(c1ccc(Cl)cc1)CC(c1ccc(Nc3nc(NCCO)nc(Nc4ccc(Cl)cc4)n3)cc1)=N2 (stereo not drawn) [33e] | MET |
| Nc1nc(N)c2c(n1)NC(c1ccc(F)cc1)CC(c1ccc(Nc3nc(NCCO)nc(Nc4ccc(Cl)cc4)n3)cc1)=N2 (stereo not drawn) [33f] | MET |
| CN(C)c1nc(NCCNS(=O)(=O)c2ccc(C(=O)/C=C/c3ccc(C(F)(F)F)cc3)cc2)nc(N2CCOCC2)n1 [23g] | NOT MET |
| COc1cc(/C=C/C(=O)c2ccc(C)cc2)ccc1Oc1nc(Nc2ccc(F)cc2)nc(N(C)C)n1 [21b] | NOT MET |
| CN(C)c1nc(NCCNS(=O)(=O)c2ccc(C(=O)/C=C/c3ccc(Cl)cc3)cc2)nc(Nc2ccc(F)cc2)n1 [24e] | NOT MET |
